Attribution: PubChem BioAssay (NCI)

Below: a set of entries, each annotated with reported growth inhibition.
Assay: NCI Yeast Anticancer Drug Screen. Data for the mec2-1 strain (AID 157)
Conditions: S. cerevisiae mec2-1 strain, at 50.0 µM, active compounds read high
About 79,000 compounds went through this panel and 15% of them were active in at least one assay; those are over-represented in the sample as a whole.
Give the number; % is assumed, so skip it.

{"Molecule": "Cc1ccc(C)[nH]1", "Unit of measurement": "%", "growth inhibition": 7.35}

Form field growth inhibition, entry CC1=NN(C(=O)c2ccc(Cl)cc2)C(=O)C1N=Nc1ccc(S(=O)(=O)Nc2ccccn2)cc1 (centres undefined) : 16.8

growth inhibition reported for this molecule CCOC(=O)NC(=Cc1ccccn1)c1ccc(Cl)cc1 (mixture of isomers) : -3.1

Short answer for `CC(F)(F)C(F)(F)C(=O)CC(=O)C(F)(F)F.CC(F)(F)C(F)(F)C(=O)CC(=O)C(F)(F)F.[Cu]` : growth inhibition was -20.4

* * *

// reported growth inhibition for each item listed
Test: NCI Yeast Anticancer Drug Screen. Data for the cln2 rad14 strain (AID 165);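 further: 0% = growth equal to vehicle treated cultures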
Conditions: S. cerevisiae cln2 rad14 strain, at 50.0 µM, active compounds read high
This is part of a sample that, as a whole, favours compounds with a hit. Of some 79,000 tested, about 15% had one in any assay. Calls of active or inactive are those of the source. Rule as the data show it: active = growth inhibition above about 70%; inactive = the rest.

{"Molecule": "O=C(OCc1ccccc1)C1CCCN1C(=O)C(CSC(c1ccccc1)(c1ccccc1)c1ccccc1)NC(c1ccccc1)(c1ccccc1)c1ccccc1 (configuration not stated)", "growth inhibition": "-11.3% (inactive)"}

Now let's try a different one.
Measured growth inhibition, CC1CC([NH-])C([NH-])C(C)(C)C1.[Cl][Pt+2][Cl] (configuration not stated) : -12.2% (inactive)

* * *

Assay: NCI Yeast Anticancer Drug Screen. Data for the bub3 strain (AID 167)
Conditions: S. cerevisiae bub3 mutant strain, at 50.0 µM, active compounds read high
Method: Growth inhibition of yeast strains with defined genetic alterations is measured as a screen for potential anti-cancer activity. Selected strains with alterations in DNA damage repair or cell cycle control were exposed to compounds and growth inhibition was measured relative to vehicle treated controls. The strain used in this assay is bub3
About 79,000 compounds went through this panel and 15% of them were active in at least one assay; those are over-represented in the sample as a whole.
Each record here notes measured growth inhibition.
I only need the number, in %, no unit after it.

Here are 8 compounds together with their reported answers.
{"Compound": "CC(=O)/C(=C\\c1ccccc1)C(=O)CCN(C)C", "Unit of measurement": "%", "Observed result": 7}
{"Compound": "CC(C)(C)c1ccc(P(=O)(O)C(C)(C)C)cc1", "Unit of measurement": "%", "Observed result": 4.15}
{"Compound": "CCCCn1[nH]c(=O)ccc1=O", "Unit of measurement": "%", "Observed result": -8.45}
{"Compound": "COC(=O)C(CC(=O)c1cc2c(cc1I)OCO2)Cc1cc(OC)c(OC)c(OC)c1I (configuration not stated)", "Unit of measurement": "%", "Observed result": -2.45}
{"Compound": "O=C(O)COc1ccccc1Cl", "Unit of measurement": "%", "Observed result": 26.1}
{"Compound": "COC(=O)c1ncn(C(C(=O)OC)C(=O)OC)c1O", "Unit of measurement": "%", "Observed result": -5.1}
{"Compound": "CC(=O)CC(=O)NC12CC3CC(CC(C3)C1)C2", "Unit of measurement": "%", "Observed result": -23.1}
{"Compound": "COC(=O)CCCC(NC(=O)c1ccc([N+](=O)[O-])cc1)C(=O)OC (configuration not stated)", "Unit of measurement": "%", "Observed result": 13.7}

Field growth inhibition (entry COC(=O)C1OC2(CCCC3CC32)O[C@H]1C(=O)OC (some centres not stated) ) reads -13.8
